What GI50 was measured for each of the following?
Test system: SK-MEL-5 melanoma
Assay: NCI tumour cell line growth inhibition, 48 h

Kindly note the recorded GI50 for C=C(NC(=O)C(=C)NC(=O)c1csc(C2=NC3c4csc(n4)C4NC(=O)c5csc(n5)C(C(C)(O)C(C)O)NC(=O)C5CSC(=N5)C(=CC)NC(=O)C(C(C)O)NC(=O)c5csc(n5)C3(CC2)NC(=O)C(C)NC(=O)C(=C)NC(=O)C(C)NC(=O)C(C(C)CC)NC2C=Cc3c(C(C)O)cc(nc3C2O)C(=O)OC4C)n1)C(N)=O (stereo not drawn) , which is 4690 nM

# GI50 of CCN(Cc1ccccc1)c1ccc(CO)c(Cl)c1 = 5830 nM

// sample O=C1NC(=O)C(c2ccccc2Cl)=C1Nc1cc(Cl)c(O)c(Cl)c1 , its GI50 was 11700 nM

// field: GI50; key: COc1cc(-c2ccc(-c3ccc(C(=N)N)nc3)s2)cc(OC)c1OC ; value = 1670 nM

The measured GI50 associated with NC1CCC(Nc2nc(NCc3ccc(-c4ccccc4O)nc3)c3ncn(C4CCCC4)c3n2)CC1 (stereo not drawn) reads 31.3 nM

GI50 for COc1cc2ncn(-c3cc(O[C@@H](C)c4ccccc4Cl)c(C(N)=O)s3)c2cc1OC is 247 nM

Record C=C(C)[C@@H]1CC[C@]2(C(=O)O)CC[C@]3(C)[C@H](CC[C@@H]4[C@@]5(C)CCC(NC(=O)c6cccc(OC(C)=O)c6OC(C)=O)C(C)(C)[C@@H]5CC[C@]43C)[C@@H]12 (stereo partly drawn) . Reported GI50: 480 nM

Record C[C@@H](O)[C@H](NC(=O)N[C@@H](CC(N)=O)c1nc([C@@H](N)CO)no1)C(=O)O , field GI50: > 100000 nM

* * *

System: MCF7 breast
Assay: NCI tumour cell line growth inhibition, 48 h
Can you tell me TGI for the items I'm about to list?
Numbers only; they are read as µM.

Documented TGI of C=C1C(=O)O[C@H]2[C@H]1CC/C(COC(=O)c1cc3ccccc3o1)=C\CC[C@@]1(C)O[C@@H]21 : 2.18

Input C=C1C(=O)OC2C1CCC(C)C1C=CC(=O)C12C (centres undefined) . Output TGI: 16.5

Entry Cc1cc(O)cc2c1[C@]1(C)CCC3C(C)(C)CCC[C@]3(C)[C@H]1C2 (some centres undefined) ; TGI = 33.3

// field: TGI; key: COc1cc2c(cc1OC)-c1ccc3cc4c(cc3c1N(CCCn1ccnc1)C2)OCO4 ; value = 74.1

Measured TGI of CC(C)(C)[Si](C)(C)Oc1cc(CO)cc2c1cc(=N)o[n+]2[O-] : 9.25

* * *

Tested on: HCT-15 colon
Assay: NCI tumour cell line growth inhibition, 48 h
Give measured TGI for each item. Keep answers brief.

// TGI value for CC(C)(C)OCC1NC(=O)[C@@H]2Cc3c([nH]c4ccccc34)C(c3ccccc3)N2C1=O (stereo partly specified) : > 50 µM

Note to self: TGI recorded for CC(=O)O/C=C1/C[C@H]2[C@@H]3CCC4CC(C(C)=O)CC[C@]4(C)[C@H]3CC[C@]2(C)C1=O (stereo partly specified) was > 100 µM

Reported TGI for CN=c1c2c(c3[nH]c4ccccc4c4cnc1c34)NCCC2=O was > 10 µM

Memo: CN(C)CCCn1c(Cc2ccc(Cl)cc2)nc2cc(C(F)(F)F)ccc21 , reported TGI: 32.8 µM

Measured TGI of O=C(O)Cc1cc(=O)[nH]c2c1/C(=N/O)CCC2 : > 100 µM

Lab book: TGI of O=c1ccs[nH]1 noted as 33.8 µM

The recorded TGI for O=C(O)C1CCCCC1C(=O)Nn1cnnc1 (stereo unspecified) is > 100 µM

// C=C(NC(=O)C(=C)NC(=O)c1csc(C2=NC3c4csc(n4)C4NC(=O)c5csc(n5)C(C(C)(O)C(C)O)NC(=O)C5CSC(=N5)C(=CC)NC(=O)C(C(C)O)NC(=O)c5csc(n5)C3(CC2)NC(=O)C(C)NC(=O)C(=C)NC(=O)C(C)NC(=O)C(C(C)CC)NC2C=Cc3c(C(C)O)cc(nc3C2O)C(=O)OC4C)n1)C(N)=O (stereo unspecified) : TGI value = > 100 µM

Record CC(C)[O-].CC(C)[O-].O=C1C=C([O-])C(=O)c2ccccc21.O=C1C=C([O-])C(=O)c2ccccc21.[Ti+4] , field TGI: > 100 µM

Consider CCOC(=O)CCC(NC(=O)c1ccc(Oc2nc3ccccc3nc2-c2ccccc2)cc1)C(=O)OCC (stereo unspecified) . Its measured TGI is > 100 µM

# TGI (compound: O=C(N/N=C/c1c(-c2ccccc2)no[n+]1[O-])N1CCOCC1 ) is > 100 µM

Record summary for c1ccc(N=C(Nc2ccccc2)N2CCCC2)cc1 : reported TGI = > 100 µM

What the record says about CC(O)c1cc2c(s1)C(=O)c1ccsc1C2=O (stereo unspecified) : TGI is 0.118 µM

# compound CC(=O)[C@@H]1C/C(=C\OCc2ccccc2)O[C@H]1C ; its TGI = > 100 µM

TGI reading for COC(=O)CC[C@]1(C)O[C@H]2[C@H]([C@@H](C)CCCC(C)=O)OC(=O)[C@@H]2C[C@H]1O : > 100 µM

Entry under test: CN1C/C(=C\c2cccs2)C2=NN(C)C(c3cccs3)C2C1 (stereo unspecified) . Its TGI was > 100 µM

CC(C)(C)CC(C)(C)c1cc2c(O)c(c1)Cc1cc(C(C)(C)CC(C)(C)C)cc(c1O)Cc1cc(C(C)(C)CC(C)(C)C)cc(c1O)Cc1cc(C(C)(C)CC(C)(C)C)cc(c1O)Cc1cc(C(C)(C)CC(C)(C)C)cc(c1O)C2 has a reported TGI of > 100 µM

Per the records, this compound ( CN(C)CCCNc1ccc2c(=O)n(CCN(C)C)c(=O)n3c4ccccc4c(=O)c1c23 ) has TGI equal to 1.13 µM

The compound CC(C)C[C@H](NC(=O)Cn1ccc(NCc2ccccc2)cc1=O)B(O)O showed TGI equal to > 41.6 µM

Just so you know, measured TGI for COc1ccc(C2SCC(=O)N2NC(=O)c2ccncc2)cc1F (stereo unspecified) came out at > 100 µM

Lookup result for C[C@]12CCC(=O)C(O)=C1CC[C@@H]1C2CC[C@]2(C)NC(=O)CCC12 (stereo partly specified) ; measured TGI: > 100 µM

Memo: CCOc1ccc(N=Cc2ccc3cc(C)ccc3n2)cc1 , reported TGI: > 100 µM

// recorded TGI for CO[C@@H]1C[C@H]2[C@@H]3CC[C@H]([C@@H](C)CO)[C@@]3(C)CC[C@@H]2[C@@]2(C)CC[C@H]3C[C@]312 : > 100 µM

Lab note: C=C1C(=O)OC2C1CCC(C)C1C=CC(=O)C12C (stereo unspecified) gave TGI of 4.11 µM

TGI measured on Cc1cc(C)c(S(=O)(=O)N2CCCN(S(=O)(=O)c3c(C)cc(C)cc3C)OCCCO2)c(C)c1 = > 100 µM

Entry under test: Cc1occc1C(=S)Nc1ccc(Cl)c(C(=O)OC(C(C)C)C(C)C)c1 . Its TGI was 33.7 µM

Note to self: TGI recorded for C#CC1(OC(C)=O)CCC2C3CC=C4C=C(OC(C)=O)CCC4(C)C3CCC21C (stereo unspecified) was 62.5 µM

Item: Cc1n[nH]c(=O)n1/N=C/c1ccc(F)cc1 | TGI: > 100 µM

Recorded result, O=C(O)CCCSc1ccccc1 , TGI: > 100 µM

Lab note: CC(C)(C)[Si](C)(C)Oc1cc(CO)cc2c1cc(=N)o[n+]2[O-] gave TGI of > 10 µM

Lab book: TGI of CC(C)OP(=O)(OC(C)C)c1nc(-c2ccccc2)n(-c2ccc([N+](=O)[O-])cc2)n1 noted as > 100 µM

For this compound ( c1ccc(C2=NCCN2)c(C2=NCCN2)c1 ), measured TGI is > 100 µM

For record CCCSc1ccc2[nH]c(/N=C/c3ccccc3)cc2c1 the listed TGI is > 100 µM

Reported TGI of Cc1cccc(C)c1CO : > 100 µM

Value of measured TGI for the entry CCCCCCc1ccc(C(=O)NO)cc1 : > 100 µM

Record COc1ccc(C(=O)C(C(=O)CC(=O)Nc2cccc(C(F)(F)F)c2)c2ccc(OC)cc2)cc1 (stereo unspecified) . Reported TGI: > 100 µM
